sequences and their reported apparent KD of MS2 coat protein
Tested on: MS2 coat protein
assay: apparent KD of MS2 coat protein, switch ON state; designed switch direction (-1 OFF switch, 1 ON switch): 1; higher = weaker reporter binding
testContext: FMN input: 0 or 200 uM; Eterna round: R93 (includes R88 designs)
Reply with just the number (in nM).

Observe how each entry below is paired with its result.
{"residueSequence": "AGAAAUAAAACACAGGAUAUCCAAAAGAAAACAUGAGGAUCACCCAUGUAAAGAAAAUAAAAAUGGGAGAAGGGUGAAAAUAAGA [Mat - Same State 2 - JL mod - D15]", "measurementTarget": "MS2 coat protein", "apparent KD of MS2 coat protein, nM": 19.9}
{"residueSequence": "AUAUAUAUAAGGAAGGAUAUCCAAAAAUAAACAUGAGGAUCACCCAUGUCCAUAAAGAAUAAAUGGGAGAAGGUCCAUAUAUAUA [77%, More Tesla, 9]", "measurementTarget": "MS2 coat protein", "apparent KD of MS2 coat protein, nM": 24.2}
{"residueSequence": "AGCACGUGAUUGGAGGAUAUGCAGUAAGCAACAUGAGGAUCACCCAUGUCUGACCCUGAAAACCAGCAGAAGGCCGAUACAACCA [SS2-1.7]", "measurementTarget": "MS2 coat protein", "apparent KD of MS2 coat protein, nM": 10.2}
{"residueSequence": "AAAUAAAUGACUGAGGAUAUAUCGAAGAAGACAUGAGGAUCACCCAUGUGAUAAUAAAAAGGGUGGUAGAAGGUAGUCAACAAAC [Mod 8 of Pariah 4 by Hyphema in Round 1]", "measurementTarget": "MS2 coat protein", "apparent KD of MS2 coat protein, nM": 133}
{"residueSequence": "ACAUGCUGCCGGCAGGAUAUCGCUUGGCGGACAUGAGGAUCACCCAUGUGAGAAAGUCGCGCGCGCGAGAAGGGCCAUGGUAUCAG [SameState2_Neo]", "measurementTarget": "MS2 coat protein", "apparent KD of MS2 coat protein, nM": 89.3}

# apparent KD of MS2 coat protein (sequence: CAGAGACAUGAGGAUCACCCAUGUAGGAUUAUGGGAGGAUAUACAAAGACGAGAGUCAGAGUAGAAGGCCUAGGCC [salish99-ss1-145] ) is 29.7
